Test system: Plasmodium falciparum
Assay: In vitro antimalarial activity against Plasmodium falciparum W-2 Indochina
Assay type: functional, organism-based
Entries and their IC50
Entry rule: numbers only, all in ng/mL.

| MOLECULE | REPORTED_MEASUREMENT |
| --- | --- |
| COC(=O)[C@H](C)CO[C@H]1O[C@@H]2O[C@@]3(C)CC[C@H]4[C@H](C)CC[C@@H]([C@H]1C)[C@@]24OO3 | 0.057 |
| C[C@H]1[C@@H](O[C@H](C)CC(=O)O)O[C@@H]2O[C@@]3(C)CC[C@H]4[C@H](C)CC[C@@H]1[C@@]24OO3 | 4.42 |
| COC(=O)C[C@@H](C)O[C@H]1O[C@@H]2O[C@@]3(C)CC[C@H]4[C@H](C)CC[C@@H]([C@H]1C)[C@@]24OO3 | 0.071 |
| CC1=CO[C@@H]2O[C@]3(C)CC[C@H]4[C@H](C)CC[C@@H]1[C@@]24OO3 [ANHYDRODIHYDROARTEMISININ] | 0.43 |
| C[C@H]1[C@@H](OC[C@H](C)C(=O)O)O[C@@H]2O[C@@]3(C)CC[C@H]4[C@H](C)CC[C@@H]1[C@@]24OO3 | 8.33 |

Qu. Using the record for C[C@H]1[C@@H](O[C@@H](C)CC(=O)O)O[C@@H]2O[C@@]3(C)CC[C@H]4[C@H](C)CC[C@@H]1[C@@]24OO3 , report its IC50.
Ans. 7.43

Qu. # lookup: IC50 of C=C[C@H]1CN2CC[C@H]1C[C@H]2[C@H](O)c1ccnc2ccc(OC)cc12 [QUININE]
Ans. 59

Qu. Which IC50 value is on record for COC(=O)[C@@H](C)CO[C@H]1O[C@@H]2O[C@@]3(C)CC[C@H]4[C@H](C)CC[C@@H]([C@H]1C)[C@@]24OO3 ?
Ans. 0.015

Qu. # lookup: IC50 of C[C@@H]1CC[C@H]2[C@@H](C)C(=O)O[C@@H]3O[C@@]4(C)CC[C@@H]1[C@]32OO4 [ARTEMISININ]
Ans. 2.6

* * *

We begin with a simple list: items and their reported IC50.
System: Plasmodium falciparum
Test: In vitro antimalarial activity against Plasmodium falciparum W-2 Indochina
Assay type: functional, organism-based

| STRUCTURE_AS_SMILES | MEASURE_NAME | REPORTED_MEASUREMENT |
| --- | --- | --- |
| COC(=O)C[C@H](C)O[C@H]1O[C@@H]2O[C@@]3(C)CC[C@H]4[C@H](C)CC[C@@H]([C@H]1C)[C@@]24OO3 | IC50 | 0.48 ng/mL |
| C[C@H]1[C@@H](OCC23CC4CC(CC(C4)C2)C3)O[C@@H]2O[C@@]3(C)CC[C@H]4[C@H](C)CC[C@@H]1[C@@]24OO3 | IC50 | 2.11 ng/mL |

Qu. Any idea what IC50 was measured for C[C@H]1[C@@H](OC[C@@H](C)C(=O)O)O[C@@H]2O[C@@]3(C)CC[C@H]4[C@H](C)CC[C@@H]1[C@@]24OO3 ?
Ans. 5.32 ng/mL
